System: velvetleaf (Abutilon theophrasti)
ASSAY EXPLANATION: Test B pre-/postemergence
Assay type: in vivo
Design: key: 0 is no effect; 10 is complete control
CONDITION NOTES: Rate 62 g/ha, Preemergence
OUTCOME MEASURE: Velvetleaf plant response rating

Illustrative cases are given below, each with its answer.
SMILES STRUCTURE	Velvetleaf plant response rating
Cc1cnc(-c2ccc(Cl)cc2)nc1Cc1cccc(C#N)c1	0
COc1cnc(-n2ccc(C(F)(F)F)n2)nc1Cc1cccc(C(F)(F)F)c1	0
Cc1cnc(-c2ccc(C(F)(F)F)cc2)nc1Cc1cccc(OC(F)(F)F)c1	4
Cc1cnc(-c2ccc(C(F)(F)F)cc2)nc1Cn1nc(C(F)(F)F)cc1C	6
Cc1cnc(-c2ccc(C(F)(F)F)cc2)nc1Cc1cccc(C(F)(F)F)c1	6

Here is the next item to consider.
Task item: I'd like to know its Velvetleaf plant response rating. The compound in question is "Cc1cnc(-c2ccc(F)c(Cl)c2)nc1Cc1cccc(C#N)c1"
Reply: 0
